Molecular target: Glutamate NMDA receptor; GRIN1/GRIN2A (Homo sapiens, UniProt Q05586+Q12879)
Sequence (Q12879 whole entry, other chains not shown): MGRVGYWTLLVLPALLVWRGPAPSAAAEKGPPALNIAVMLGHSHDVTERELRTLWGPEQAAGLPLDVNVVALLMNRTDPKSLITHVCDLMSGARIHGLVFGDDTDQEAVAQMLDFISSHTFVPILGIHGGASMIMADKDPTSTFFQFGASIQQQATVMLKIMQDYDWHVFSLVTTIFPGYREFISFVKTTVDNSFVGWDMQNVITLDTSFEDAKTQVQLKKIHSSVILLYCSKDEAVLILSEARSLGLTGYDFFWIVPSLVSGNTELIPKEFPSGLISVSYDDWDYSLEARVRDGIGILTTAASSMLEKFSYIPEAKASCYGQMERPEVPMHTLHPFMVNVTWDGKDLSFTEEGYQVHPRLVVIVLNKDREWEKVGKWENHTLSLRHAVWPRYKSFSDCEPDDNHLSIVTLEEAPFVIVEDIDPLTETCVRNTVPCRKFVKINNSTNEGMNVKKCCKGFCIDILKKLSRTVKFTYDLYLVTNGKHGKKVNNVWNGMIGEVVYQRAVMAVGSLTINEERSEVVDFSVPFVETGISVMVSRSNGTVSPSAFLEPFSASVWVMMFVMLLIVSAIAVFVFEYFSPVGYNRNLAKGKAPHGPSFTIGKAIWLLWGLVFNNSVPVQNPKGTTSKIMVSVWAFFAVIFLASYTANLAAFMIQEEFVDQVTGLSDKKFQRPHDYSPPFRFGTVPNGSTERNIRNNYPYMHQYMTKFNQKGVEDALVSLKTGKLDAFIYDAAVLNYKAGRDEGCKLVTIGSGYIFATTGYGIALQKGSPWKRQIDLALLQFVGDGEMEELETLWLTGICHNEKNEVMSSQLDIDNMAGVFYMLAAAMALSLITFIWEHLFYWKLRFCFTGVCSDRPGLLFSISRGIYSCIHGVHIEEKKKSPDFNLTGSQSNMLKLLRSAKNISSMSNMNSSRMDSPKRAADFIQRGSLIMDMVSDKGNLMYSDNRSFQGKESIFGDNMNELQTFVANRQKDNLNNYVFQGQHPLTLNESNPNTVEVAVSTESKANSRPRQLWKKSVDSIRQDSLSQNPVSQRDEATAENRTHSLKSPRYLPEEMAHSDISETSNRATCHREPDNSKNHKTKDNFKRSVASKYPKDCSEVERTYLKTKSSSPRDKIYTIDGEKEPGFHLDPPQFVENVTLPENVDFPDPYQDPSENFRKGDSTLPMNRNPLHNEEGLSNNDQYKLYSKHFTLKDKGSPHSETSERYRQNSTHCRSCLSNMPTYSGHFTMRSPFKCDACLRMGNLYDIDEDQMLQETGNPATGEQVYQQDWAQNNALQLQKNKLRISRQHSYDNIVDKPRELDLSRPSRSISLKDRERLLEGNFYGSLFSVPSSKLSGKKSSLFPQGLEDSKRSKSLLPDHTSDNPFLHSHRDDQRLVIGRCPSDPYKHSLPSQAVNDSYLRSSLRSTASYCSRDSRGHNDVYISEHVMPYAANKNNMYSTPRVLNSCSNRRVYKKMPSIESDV
Assay: Positive allosteric modulation of GluN1/GluN2A NMDAR (unknown origin) expressed in Dox-inducible cells measured every 5 mins by BD calcium indicator dye based-fluorescence analysis in presence of glutamate/glycine
Would you kindly list EC50 for each of these compounds?

Please review the entries below; each comes with its answer.
compound=CCN(Cc1cc(=O)n2c(C3CCC3)c(C)sc2n1)c1ccc(F)cc1 assay_system="Glutamate NMDA receptor; GRIN1/GRIN2A (Homo sapiens, UniProt Q05586+Q12879)" attribute_measured=EC50 result="2600 nM"
compound=Cc1sc2nc(COc3ccc(F)cc3)cc(=O)n2c1[C@@H]1C[C@H]1CO assay_system="Glutamate NMDA receptor; GRIN1/GRIN2A (Homo sapiens, UniProt Q05586+Q12879)" attribute_measured=EC50 result="382 nM"
compound=CCN(Cc1cc(=O)n2cc(C)sc2n1)c1ccc(F)cc1 assay_system="Glutamate NMDA receptor; GRIN1/GRIN2A (Homo sapiens, UniProt Q05586+Q12879)" attribute_measured=EC50 result="312 nM"
compound="CCN(Cc1cc(=O)n2c(C(C)O)c(C)sc2n1)c1ccc(F)cc1 (racemic)" assay_system="Glutamate NMDA receptor; GRIN1/GRIN2A (Homo sapiens, UniProt Q05586+Q12879)" attribute_measured=EC50 result="183 nM"
compound=CCN(Cc1cc(=O)n2nc(C)sc2n1)c1ccc(F)cc1 assay_system="Glutamate NMDA receptor; GRIN1/GRIN2A (Homo sapiens, UniProt Q05586+Q12879)" attribute_measured=EC50 result="900 nM"

## Input Please list EC50 recorded for the compound CCN(Cc1cc(=O)n2c(C(C)=O)c(C)sc2n1)c1ccc(F)cc1
## Output 88 nM

* * *

Biological target: Glutamate receptor 2 (Homo sapiens, UniProt P42262)
Sequence (P42262 whole entry): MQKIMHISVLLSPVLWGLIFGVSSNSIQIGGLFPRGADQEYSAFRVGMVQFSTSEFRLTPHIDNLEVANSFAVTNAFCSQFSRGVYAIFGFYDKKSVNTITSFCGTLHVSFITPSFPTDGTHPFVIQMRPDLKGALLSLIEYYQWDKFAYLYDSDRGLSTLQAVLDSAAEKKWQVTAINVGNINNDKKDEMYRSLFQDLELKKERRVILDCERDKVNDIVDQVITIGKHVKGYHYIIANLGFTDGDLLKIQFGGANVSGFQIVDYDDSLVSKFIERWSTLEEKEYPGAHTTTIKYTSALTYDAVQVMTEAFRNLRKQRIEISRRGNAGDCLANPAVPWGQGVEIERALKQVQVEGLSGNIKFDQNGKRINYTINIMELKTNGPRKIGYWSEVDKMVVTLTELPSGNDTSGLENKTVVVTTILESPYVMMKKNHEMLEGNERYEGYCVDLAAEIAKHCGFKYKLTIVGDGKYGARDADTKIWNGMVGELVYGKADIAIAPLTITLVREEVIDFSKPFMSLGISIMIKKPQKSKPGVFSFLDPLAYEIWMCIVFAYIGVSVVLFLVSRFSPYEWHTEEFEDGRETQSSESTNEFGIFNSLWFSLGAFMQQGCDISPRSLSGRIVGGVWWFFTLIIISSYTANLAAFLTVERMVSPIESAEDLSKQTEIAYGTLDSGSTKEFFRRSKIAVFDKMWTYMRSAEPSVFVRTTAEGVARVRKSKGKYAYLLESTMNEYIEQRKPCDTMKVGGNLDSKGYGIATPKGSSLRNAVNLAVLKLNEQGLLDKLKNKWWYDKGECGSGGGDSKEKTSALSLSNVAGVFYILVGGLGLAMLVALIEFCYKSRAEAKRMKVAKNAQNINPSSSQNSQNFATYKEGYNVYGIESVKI
Test: Positive allosteric modulation of human GluA2 AMPAR flip isomer expressed in Dox-inducible cells at 125 uM measured every 5 mins by BD calcium indicator dye based-fluorescence analysis in presence of glutamate
Assay type: cell-based
%max of 40% or higher: True. Under 40%: False.

Worked examples, 10 compounds total:
compound=CCN(Cc1cc(=O)n2c(C(C)=O)c(C)sc2n1)c1ccc(F)cc1 assay_system="Glutamate receptor 2 (Homo sapiens, UniProt P42262)" discrete_label=False
compound=CCN(Cc1cc(=O)n2c(C#N)c(C)sc2n1)c1ccc(F)cc1 assay_system="Glutamate receptor 2 (Homo sapiens, UniProt P42262)" discrete_label=False
compound=CCNC(=O)c1c(C)sc2nc(COc3ccc(F)cc3)cc(=O)n12 assay_system="Glutamate receptor 2 (Homo sapiens, UniProt P42262)" discrete_label=False
compound="CCN(Cc1cc(=O)n2c(C(C)O)c(C)sc2n1)c1ccc(F)cc1 (racemic)" assay_system="Glutamate receptor 2 (Homo sapiens, UniProt P42262)" discrete_label=False
compound=CCCCc1nn2c(=O)cc(CN(CC)c3ccccc3)nc2s1 assay_system="Glutamate receptor 2 (Homo sapiens, UniProt P42262)" discrete_label=True
compound=Cc1sc2nc(Cn3nc(C(F)(F)F)cc3Cl)cc(=O)n2c1[C@@H]1C[C@H]1C#N assay_system="Glutamate receptor 2 (Homo sapiens, UniProt P42262)" discrete_label=True
compound=CCNC(=O)c1c(C)sc2nc(Cn3nc(C(F)(F)F)cc3OCC(C)C)cc(=O)n12 assay_system="Glutamate receptor 2 (Homo sapiens, UniProt P42262)" discrete_label=False
compound="Cc1sc2nc(Cc3cccc(C#N)c3F)cc(=O)n2c1C1CC1CO (racemic)" assay_system="Glutamate receptor 2 (Homo sapiens, UniProt P42262)" discrete_label=False
compound=CCN(Cc1cc(=O)n2c(C(C)C)c(C)sc2n1)c1ccc(F)cc1 assay_system="Glutamate receptor 2 (Homo sapiens, UniProt P42262)" discrete_label=False
compound=CCN(Cc1cc(=O)n2c(CCCO)c(C)sc2n1)c1ccc(F)cc1 assay_system="Glutamate receptor 2 (Homo sapiens, UniProt P42262)" discrete_label=False

## Input Entry CCNC(=O)c1c(C)sc2nc(Cc3cccc(C#N)c3)cc(=O)n12 : is its %max no less than 40%?
## Output False

## Input Decide: is the reported value of %max for CCN(Cc1cc(=O)n2c(-c3cccnc3)c(C)sc2n1)c1ccc(F)cc1 equal to or greater than 40%?
## Output True

## Input Record C=C(C)c1c(C)sc2nc(CN(CC)c3ccc(F)cc3)cc(=O)n12 ; criterion: %max no lower than 40%. Met?
## Output True

Data provenance is ChEMBL document CHEMBL3797125.
